# SYSTEM_NAME: Runt-related transcription factor 1 (Homo sapiens) + Core-binding factor subunit beta (Homo sapiens) (UniProt Q01196+Q13951)
# Sequence (Q01196 whole entry, looked up): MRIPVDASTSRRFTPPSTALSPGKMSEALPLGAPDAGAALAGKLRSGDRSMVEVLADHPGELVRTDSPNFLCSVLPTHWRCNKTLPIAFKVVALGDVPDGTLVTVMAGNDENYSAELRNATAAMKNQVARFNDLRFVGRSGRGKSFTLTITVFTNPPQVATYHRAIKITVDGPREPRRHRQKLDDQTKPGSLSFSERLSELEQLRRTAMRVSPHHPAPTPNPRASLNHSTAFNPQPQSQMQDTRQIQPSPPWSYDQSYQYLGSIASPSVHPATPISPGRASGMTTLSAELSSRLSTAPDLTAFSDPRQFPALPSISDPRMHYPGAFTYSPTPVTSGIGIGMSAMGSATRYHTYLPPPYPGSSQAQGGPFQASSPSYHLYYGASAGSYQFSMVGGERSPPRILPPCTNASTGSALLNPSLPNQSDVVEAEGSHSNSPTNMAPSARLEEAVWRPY
# Sequence (Q13951 whole entry, looked up): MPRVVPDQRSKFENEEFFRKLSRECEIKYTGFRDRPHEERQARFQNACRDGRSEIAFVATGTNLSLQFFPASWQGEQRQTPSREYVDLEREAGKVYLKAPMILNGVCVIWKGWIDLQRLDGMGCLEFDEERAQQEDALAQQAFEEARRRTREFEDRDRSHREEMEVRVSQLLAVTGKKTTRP
# ASSAY_PROTOCOL: qHTS Assay for Compounds Blocking the Interaction Between CBF-beta and RUNX1 for the Treatment of Acute Myeloid Leukemia: Hit Validation with Orthogonal Assay
# MEASUREMENT_CONDITIONS: CBFbeta-RUNX1 binding orthogonal assay, biochemical; series mostly up to 41 µM
Screen size: about 1,600 compounds; about 25 (2%) were called active. Another 7% or so got no clear call; they are omitted. Calls follow the shape of the dose curve; as a rule, active = well fitted inhibition curve with a large enough effect; inconclusive = small, poorly fitted or top-dose-only effect, or effect the other way; inactive = no such curve, though single readings can be large or run the other way. The full list was thinned out, with actives kept by preference.
Lab note: assign the record to one of active, inactive

Test call, this compound: O=c1[nH]c(=S)n(-c2ccccc2)c(O)c1C=NCc1ccccn1
inactive

Test call, this compound: O=C(O)CCCCC1SCC2NC(=O)NC21 (stereo unspecified)
active

Test call, this compound: CC1CN=C(Nc2ccc(F)c(Cl)c2)S1 (stereo unspecified)
inactive

Test call, this compound: CCC(=Nc1cccc(C(F)(F)F)c1)c1c(O)n(C)c(=O)n(C)c1=O
inactive

Test call, this compound: COC1C(OC(=O)c2ccc(C)[nH]2)C(O)C(Oc2ccc3c(O)c(NC(=O)c4ccc(O)c(CC=C(C)C)c4)c(=O)oc3c2Cl)OC1(C)C (stereo unspecified)
inactive

Kindly review the next compound as well.
Test call, this compound: NC(Cc1cc(O)c(O)cc1O)C(=O)O (stereo unspecified)
active

----------
# SYSTEM_NAME: Runt-related transcription factor 1 (Homo sapiens) + Core-binding factor subunit beta (Homo sapiens) (UniProt Q01196+Q13951)
# ASSAY_PROTOCOL: qHTS Assay for Compounds Blocking the Interaction Between CBF-beta and RUNX1 for the Treatment of Acute Myeloid Leukemia: Hit Validation with Orthogonal Assay
# MEASUREMENT_CONDITIONS: CBFbeta-RUNX1 binding orthogonal assay, biochemical; series mostly up to 41 µM
Among all 1,600 compounds or so, about 25 (2%) were called active. Inconclusive results (about 7%) are left out. Calls follow the shape of the dose curve; as a rule, active = well fitted inhibition curve with a large enough effect; inconclusive = small, poorly fitted or top-dose-only effect, or effect the other way; inactive = no such curve, though single readings can be large or run the other way. Many of the other results were omitted from the sample, so actives are more common in it than they were.
Lab note: assign the record to one of 1 (yes) for active, 0 (no) for inactive

A selection of reference data follows.
Test call, this molecule: Cc1onc(-c2c(Cl)cccc2Cl)c1C(=O)Nc1ccc2c(C(F)(F)F)cc(=O)oc2c1
0 (no)

Test call, this molecule: O=C(O)CN1C(=O)CN=C(c2ccccn2)c2cc(Cl)ccc21
0 (no)

Test call, this molecule: CN(N=O)c1ccc(O)c(O)c1
1 (yes)

Kindly review the next molecule as well.
Test call, this molecule: CN(N=O)c1cc(O)ccc1O
0 (no)
